Reference source: the RNAGym collection of RNA variant scans (doi:10.1101/gr.219683.116)

# Lookup of reported exon inclusion enrichment index keyed by entry
B1: mRNA-splicing (parent)
chain: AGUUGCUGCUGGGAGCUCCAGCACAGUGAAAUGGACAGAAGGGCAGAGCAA

# Variants of: B1
# Experiment: exon inclusion enrichment index; higher = more inclusion; WT1 exon 5 minigene, HEK293
Property: exon inclusion enrichment index

• AGUUGACGACGGGAGCUCCAGCACAGUGAAAUGGACAGAAUAGCAGAGCAA = 1.6
• AGUUGACGACACGAGCUCCAGCACAGUGAAAUGGACAGAAGGGCAGAGCAA = 2.2
• AGUUCACACAGGGAGCUCCAGCCUAGUGAAAUGGACAGAAGGGCAGAGCAA = 0.0196
• AGUUAUAUAUGGGAGCUCCAGCACAGUGAAAUGGACAAUAGGGCAGAGCAA = 0.00385
• AGUUAGGGAUGGGAGCUCCAGCACAGUGAAAUGGACAGAAGGGCCCAGCAA = 0.00399
• AGUUGACGACGGGAGCUCCAGCACAGUGAAAGGGACAGAAGGGCAGAGCAA = 0.701
• AGUUGAUAACGGGAGCUCCAGCACAGUGAAAUGGACAGAAGGGCAGAGCAA = 0.666
• AGUGAACACAGGGAGCUCCAGCACAGUGAAAUGGACAGAAGGGCAGAGCAA = 0.403
• AGUUCACACAGGGAGCUCCAGCACAGUGAAAUGGACAGAAGGGCUCAGCAA = 0.0541
• AGUUUCUUUUGGGAGCUCCAGCACAGUGAAAUGGACAGAAGGGCGCAGCAA = 0.262
• AGUUGCUGCUGGGAGCUCCAGCACAGUGAAAUGGACAGAAGGGCAGACCAA = 0.292
• AGUUGACGACGGGAGCUCCAGCACAGCCAAAUGGACAGAAGGGCAGAGCAA = 3.85
• AGUUCACACCUGGAGCUCCAGCACAGUGAAAUGGACAGAAGGGCAGAGCAA = 1.71
• AGUUCUUCUCGGGAGCUCCUCCACAGUGAAAUGGACAGAAGGGCAGAGCAA = 1.62
• AGUUGAAGAAGGGAGCUCCACGACAGUGAAAUGGACAGAAGGGCAGAGCAA = 1.63
• AGUUACCUCCGGGAGCUCCAGCACAGUGAAAUGGACAGAAGGGCAGAGCAA = 1.92
• AGUUAUAUAUGGGAGCUCCCUCACAGUGAAAUGGACAGAAGGGCAGAGCAA = 0.0238
• AGUUGUAGAAGGGAGCUCCAGCACAGUGAAAUGGACAGAAGGGCAGAGCAA = 0.0567
• AGUUCUUCUCGGGACCUCCAGCACAGUGAAAUGGACAGAAGGGCAGAGCAA = 2.54
• AGUUCACACAGGGAGCUCCAGCACAGUGAAAUGUACAGAAGGGCAGAGCAA = 0.012
• AGUUCGCGCCGGGAGCUCCAGCACAGUGAAAUGGACAGAUAGGCAGAGCAA = 0.26
• AGUUGAAGAAGGGAGCUCCAGCACAGUGAAAUGGACAGUGGGGCAGAGCAA = 0.0729
• AGUUCGCGCCGGACGCUCCAGCACAGUGAAAUGGACAGAAGGGCAGAGCAA = 3.48
• AGUUCACACAGGGAGCUCCAGCACAGUGAAAUGGACAAGAGGGCAGAGCAA = 0.102
• AGUUGGCGACGGGAGCUCCAGCACAGUGAAAUGGACAGAAGGGCAGAGCAA = 3.21
• AGACAGGGAUGGGAGCUCCAGCACAGUGAAAUGGACAGAAGGGCAGAGCAA = 0.0761
• AGUUGCUGCUGGGAGCUCCAGCCUAGUGAAAUGGACAGAAGGGCAGAGCAA = 0.256
• AGUUGAAGAAGGGAGCUCCAGCACAGUGAUCUGGACAGAAGGGCAGAGCAA = 0.579
• AGUUGACGACGGGAGCCACAGCACAGUGAAAUGGACAGAAGGGCAGAGCAA = 3.17
• AGUUCGCGCCGGGAGUCCCAGCACAGUGAAAUGGACAGAAGGGCAGAGCAA = 2.87
• AGUUCGCGCCGGGAGCUCCAGGGCAGUGAAAUGGACAGAAGGGCAGAGCAA = 2.57
• AGUUCUCGACGGGAGCUCCAGCACAGUGAAAUGGACAGAAGGGCAGAGCAA = 3.23
• AGUUGACGCCGGGAGCUCCAGCACAGUGAAAUGGACAGAAGGGCAGAGCAA = 3.14
• AGUUCACACAGGGAGCUCCAGCACAGUGAUGUGGACAGAAGGGCAGAGCAA = 0.105
